- Target entity: PA83 protective antigen (Bacillus anthracis, UniProt P13423)
- Sequence (P13423 30-764): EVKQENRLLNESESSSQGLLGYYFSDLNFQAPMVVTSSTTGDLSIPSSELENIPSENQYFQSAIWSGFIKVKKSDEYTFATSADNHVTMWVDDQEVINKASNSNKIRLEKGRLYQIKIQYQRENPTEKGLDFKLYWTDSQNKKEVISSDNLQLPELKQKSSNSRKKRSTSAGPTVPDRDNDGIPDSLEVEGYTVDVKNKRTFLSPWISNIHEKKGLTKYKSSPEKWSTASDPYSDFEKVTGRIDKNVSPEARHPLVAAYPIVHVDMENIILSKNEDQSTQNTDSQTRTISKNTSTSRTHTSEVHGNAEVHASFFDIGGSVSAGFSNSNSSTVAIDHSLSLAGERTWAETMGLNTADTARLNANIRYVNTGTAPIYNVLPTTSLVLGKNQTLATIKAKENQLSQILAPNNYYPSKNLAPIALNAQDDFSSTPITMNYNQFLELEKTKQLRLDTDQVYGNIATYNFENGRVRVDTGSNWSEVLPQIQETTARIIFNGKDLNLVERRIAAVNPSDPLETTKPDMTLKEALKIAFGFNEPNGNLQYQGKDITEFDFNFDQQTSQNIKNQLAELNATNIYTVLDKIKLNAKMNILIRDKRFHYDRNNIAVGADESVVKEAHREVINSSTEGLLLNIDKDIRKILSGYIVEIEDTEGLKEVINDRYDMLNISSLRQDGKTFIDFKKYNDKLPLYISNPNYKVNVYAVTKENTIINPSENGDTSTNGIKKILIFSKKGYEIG
- Assay procedure: SPR
Readout: Kd (nM)
Field format: number, assumed nM, no unit text.

# return recorded Kd for input 35PA83 Fab (parent) (antibody, V domains shown) VH: GPGLLKPSETLSLTCAVSGDSISGGYYWSWIRQSPGKGLEWIGHIYGSTADTRYNPSLKSRVTISKDTSKNQLSLQLRSVTAADTAVYYCARSGYNFWSGEYYGLDSWGQGAVVTVSS VL: TQSPSSLSAYVGDKVTITCHASQGINSWLAWYQQKPGKAPKLLIYKASSLQSGVPSRFSGSGSGTDYTLTISSLQSEDFASYYCLQYDSAPLAFGPGTKLDIK 3.4
